# protocol details: Cytotoxicity against mouse 3T3-FL cells after 24 to 120 hrs
# Format: cell-based
# condition notes: read-out: MNTD>75

- compound structure string: "CO[C@H]1/C=C/O[C@@]2(C)Oc3c(C)c(O)c4c(O)c(c(CN)c(O)c4c3C2=O)NC(=O)/C(C)=C\\C=C\\[C@H](C)[C@H](O)[C@@H](C)[C@@H](O)[C@@H](C)[C@H](OC(C)=O)[C@@H]1C"
  MNTC (nM): 1400
- compound structure string: "CNCc1c2c(O)c3c(O)c(C)c4c(c3c1O)C(=O)[C@@](C)(O/C=C/[C@H](OC)[C@@H](C)[C@@H](OC(C)=O)[C@H](C)[C@H](O)[C@H](C)[C@@H](O)[C@@H](C)/C=C/C=C(/C)C(=O)N2)O4"
  MNTC (nM): 1400
- compound structure string: "CCCNCc1c2c(O)c3c(O)c(C)c4c(c3c1O)C(=O)[C@@](C)(O/C=C/[C@H](OC)[C@@H](C)[C@@H](OC(C)=O)[C@H](C)[C@H](O)[C@H](C)[C@@H](O)[C@@H](C)/C=C/C=C(/C)C(=O)N2)O4"
  MNTC (nM): 1300
- compound structure string: "CO[C@H]1/C=C/O[C@@]2(C)Oc3c(C)c(O)c4c(O)c5c(c(O)c4c3C2=O)CNC(=N5)/C(C)=C\\C=C\\[C@H](C)[C@H](O)[C@@H](C)[C@@H](O)[C@@H](C)[C@H](OC(C)=O)[C@@H]1C"
  MNTC (nM): 1400
- compound structure string: "CO[C@H]1/C=C/O[C@@]2(C)Oc3c(C)c(O)c4c(O)c5c(c(O)c4c3C2=O)CN(C)C(=N5)/C(C)=C\\C=C\\[C@H](C)[C@H](O)[C@@H](C)[C@@H](O)[C@@H](C)[C@H](OC(C)=O)[C@@H]1C"
  MNTC (nM): 1400
